So I've got pIC50 readings for Pim-1 (Homo sapiens (Human), UniProt P11309), take a look.
pIC50: −log10 of the molar value.

Name the reported pIC50 value associated with the molecule Nc1oc2cc(Br)cnc2c1C(=O)Nc1cnccc1N1CCC[C@H](N)C1 [Example 54] ≥ 8.00

Name the reported pIC50 value associated with the molecule Cn1ncc(NC(=O)c2c(N)sc3ccc(Cl)nc23)c1N1CCC[C@H](N)C1 [Example 41] ≥ 8.00

Name the reported pIC50 value associated with the molecule COC1CCN(Cc2cnc3c(C(=O)Nc4cnccc4N4C[C@@H](N)C[C@@H](C(F)(F)F)C4)c(N)oc3c2)C1 (stereo partly shown) [Example 103] ≥ 8.00

Next:
Name the reported pIC50 value associated with the molecule CCCc1cnc2c(C(=O)Nc3cnn(C)c3N3CCCC(N)CC3)c(N)oc2c1 (stereo not shown) [Example 59] ≥ 8.00
